Test system: PBMC
Protocol notes: Antiinflammatory activity in human PBMC assessed as inhibition of LPS-induced TNFalpha production at 1 to 100 uM after 48 hrs by ELISA
Assay type: functional, cell-based
Calls of active or inactive are those of the source. No cut-off for these calls is given here.
Response enum: active, inactive

O=C(Nc1cccc(S(=O)(=O)N2CCOCC2)c1)c1cc2cccnc2[nH]1 :: inactive
O=C(Nc1ccccc1)c1cc2cccnc2[nH]1 :: inactive
O=C(Nc1cccc(S(=O)(=O)N2CCN(c3ccccc3)CC2)c1)c1cc2cccnc2[nH]1 :: inactive
O=C1c2cc3cccnc3n2C(=O)N1S(=O)(=O)c1ccccc1 :: active

State the result this test recorded for `O=C(Nc1cccc(S(=O)(=O)N2CCSCC2)c1)c1cc2cccnc2[nH]1` . inactive
